Test system: HIV-1 in Hela-CD4 cells
experiment-summary: Combination medication JHR and AZT (MAGI test)
Type: cell-based
measurement-setup: combined with the first dose of JHR; read-out: IC50 of AZT after combining with the first dose of JHR
Method: Method: For the experiment, the MAGI test method was adopted (the same as above). (A) Single-agent medication: five doses of AZT were used in amount of from 1 μM to 3.9 nM, and were designated AZT1-5, five doses of JHR were designated in amount of 400 ug/ml to 1.56 ug/ml, and IC50 were obtained respectively. Half dosage of AZT was combined with half dosage of JHR-1 as one sample. […]
quantity-measured: IC50

INSERT INTO assay_data (molecule, quantity_measured, result) VALUES
  ('Cc1cn([C@H]2C[C@H](N=[N+]=[N-])[C@@H](CO)O2)c(=O)[nH]c1=O [AZT]', 'IC50', '5.8 nM');
